tgt: M6PR (Homo sapiens)
Construct: endogenous in cells; host or cells: HUVEC (parental, or transduced with LV-143Spg / control LV)
Sequence (P11717 41-2491): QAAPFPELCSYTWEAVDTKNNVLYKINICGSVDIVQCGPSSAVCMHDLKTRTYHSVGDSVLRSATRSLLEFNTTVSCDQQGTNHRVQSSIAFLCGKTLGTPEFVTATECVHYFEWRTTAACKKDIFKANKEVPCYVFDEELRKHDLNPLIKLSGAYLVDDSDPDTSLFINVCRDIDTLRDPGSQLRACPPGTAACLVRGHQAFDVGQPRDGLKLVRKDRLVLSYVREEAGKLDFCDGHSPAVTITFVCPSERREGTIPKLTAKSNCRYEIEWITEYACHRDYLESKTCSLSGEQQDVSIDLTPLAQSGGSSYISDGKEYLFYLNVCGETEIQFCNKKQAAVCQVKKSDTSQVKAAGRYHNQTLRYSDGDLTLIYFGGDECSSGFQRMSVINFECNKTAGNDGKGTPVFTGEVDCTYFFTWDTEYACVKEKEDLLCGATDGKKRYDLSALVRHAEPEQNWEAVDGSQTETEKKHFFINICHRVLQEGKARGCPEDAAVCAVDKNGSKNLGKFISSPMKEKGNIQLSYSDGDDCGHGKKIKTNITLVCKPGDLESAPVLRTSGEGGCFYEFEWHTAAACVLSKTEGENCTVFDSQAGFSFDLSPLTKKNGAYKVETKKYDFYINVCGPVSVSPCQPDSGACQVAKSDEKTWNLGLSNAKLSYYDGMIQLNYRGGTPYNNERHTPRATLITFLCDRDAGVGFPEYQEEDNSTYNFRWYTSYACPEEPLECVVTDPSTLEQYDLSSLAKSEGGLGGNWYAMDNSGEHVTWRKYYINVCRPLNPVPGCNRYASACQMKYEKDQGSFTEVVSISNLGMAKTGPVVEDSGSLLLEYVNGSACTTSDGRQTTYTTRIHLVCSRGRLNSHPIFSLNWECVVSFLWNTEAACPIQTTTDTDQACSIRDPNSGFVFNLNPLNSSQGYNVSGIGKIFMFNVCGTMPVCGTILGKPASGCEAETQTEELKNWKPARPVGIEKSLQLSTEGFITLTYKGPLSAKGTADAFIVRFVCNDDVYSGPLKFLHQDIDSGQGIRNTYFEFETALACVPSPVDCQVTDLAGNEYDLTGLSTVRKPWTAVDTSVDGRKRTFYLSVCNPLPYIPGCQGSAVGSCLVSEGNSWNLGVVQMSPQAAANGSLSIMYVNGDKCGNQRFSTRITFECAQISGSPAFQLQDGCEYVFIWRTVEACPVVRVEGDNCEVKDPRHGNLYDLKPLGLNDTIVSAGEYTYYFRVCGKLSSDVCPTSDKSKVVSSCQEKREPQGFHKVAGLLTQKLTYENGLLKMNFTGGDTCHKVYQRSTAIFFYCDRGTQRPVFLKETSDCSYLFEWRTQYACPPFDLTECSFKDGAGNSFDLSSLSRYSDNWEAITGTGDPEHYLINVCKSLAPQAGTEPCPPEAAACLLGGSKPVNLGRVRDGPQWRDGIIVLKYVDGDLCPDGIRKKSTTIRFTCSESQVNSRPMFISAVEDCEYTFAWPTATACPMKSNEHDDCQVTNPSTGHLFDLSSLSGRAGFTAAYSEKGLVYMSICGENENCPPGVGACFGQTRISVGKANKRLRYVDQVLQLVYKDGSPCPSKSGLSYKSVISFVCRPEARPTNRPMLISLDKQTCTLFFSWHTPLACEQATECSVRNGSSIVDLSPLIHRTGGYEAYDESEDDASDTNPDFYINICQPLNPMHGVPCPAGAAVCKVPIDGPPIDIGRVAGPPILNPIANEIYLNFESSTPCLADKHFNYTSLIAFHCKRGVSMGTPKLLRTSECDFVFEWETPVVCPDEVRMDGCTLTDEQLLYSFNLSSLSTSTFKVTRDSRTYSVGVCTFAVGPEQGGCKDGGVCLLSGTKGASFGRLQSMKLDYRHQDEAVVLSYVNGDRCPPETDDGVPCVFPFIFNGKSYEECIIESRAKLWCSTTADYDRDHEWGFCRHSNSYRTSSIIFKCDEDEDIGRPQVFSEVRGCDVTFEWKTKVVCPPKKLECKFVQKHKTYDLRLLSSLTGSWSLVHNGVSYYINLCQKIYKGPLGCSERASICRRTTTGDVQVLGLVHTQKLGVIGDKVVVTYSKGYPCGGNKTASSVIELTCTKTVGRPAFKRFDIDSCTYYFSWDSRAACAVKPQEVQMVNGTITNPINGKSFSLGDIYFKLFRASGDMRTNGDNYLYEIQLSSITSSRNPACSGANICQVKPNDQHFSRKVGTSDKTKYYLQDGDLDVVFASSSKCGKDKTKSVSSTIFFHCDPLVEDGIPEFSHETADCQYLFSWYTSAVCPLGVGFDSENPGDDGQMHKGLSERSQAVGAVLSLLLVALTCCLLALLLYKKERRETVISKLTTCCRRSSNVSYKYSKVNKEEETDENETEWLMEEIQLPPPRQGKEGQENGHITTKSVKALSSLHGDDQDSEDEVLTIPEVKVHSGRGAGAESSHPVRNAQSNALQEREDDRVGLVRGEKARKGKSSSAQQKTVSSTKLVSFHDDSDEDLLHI
assay_summary: M6P competition of IDUA-myc uptake in hCMEC/D3 cells
Assay type: cell-based
particulars: 1 h exposure to IDUA-myc conditioned medium (~20,000 U/mL), read-out: Median inhibitory concentration (IC50) of IDUA-myc uptake
measured_quantity: IC50 (µM)
Response body: numeric value in µM, unit text excluded.

**Query** What IC50 value was documented for this molecule, O=C[C@@H](O)[C@@H](O)[C@H](O)[C@H](O)COP(=O)(O)O [M6P inhibitor, mannose 6-phosphate] ?
**Result** 57.2
